For each entry below, report its IC50 value.
Test system: HL-60
test summary: Antiproliferative activity against human HL-60 cells assessed as reduction in cell viability incubated for 48 hrs by MTT assay
Format: functional, cell-based
measurement context: HL-60, 48 h
One number for each entry, in nM.

Reference set, count: 2
{"columns": ["compound", "target desc", "IC50 (nM)"],
 "data": [
  ["C[C@@H]1CC[C@H]2[C@@H](C)C(OCC(COC3O[C@H]4O[C@@]5(C)CC[C@H]6[C@H](C)CC[C@@H]([C@H]3C)[C@@]46OO5)=NO)O[C@H]3O[C@@]4(C)CC[C@@H]1[C@]32OO4 (stereo partly drawn)", "HL-60", 40],
  ["COc1cccc2c1C(=O)c1c(O)c3c(c(O)c1C2=O)C[C@@](O)(C(=O)CO)C[C@@H]3O[C@H]1C[C@H](N)[C@H](O)[C@H](C)O1 [DOXORUBICIN]", "HL-60", 9]
]}

# next compound below
Supply reported IC50 belonging to this compound: C[C@@H]1CC[C@H]2[C@@H](C)C(OCC(COC3O[C@H]4O[C@@]5(C)CC[C@H]6[C@H](C)CC[C@@H]([C@H]3C)[C@@]46OO5)OC(=O)CCC(=O)O)O[C@H]3O[C@@]4(C)CC[C@@H]1[C@]32OO4 (stereo partly drawn)
60
